# method notes: Cyto protection: cytotoxicity on stomach epithelial cells
# Assay type: cell-based
# cond: stomach epithelial cells; rabbit fetus cells, DME containing 20% FCS; read-out: LD50 Stomach epitherial cells
Measured CC50 values are reported for all entries that follow.

molecule	CC50
COC12C(COC(N)=O)C3=C(C(=O)C(C)=C(N)C3=O)N1CC1NC12 (centres unmarked) [Mytomycin C, reference compound]	0.01 to 0.02 µg/mL
CCCCC[C@H](O)/C=C/[C@H]1C=CC(=O)/C1=C/CCCCCC(=O)O [7(E)-7,8-Dehydroprostaglandin A1]	2 to 5 µg/mL

---

As shown below, each of these compounds has a reported IC50 value.
# System: L1210 leukemia cells
# method notes: Inhibiting proliferation of L1210 leukemia cell
# Type: cell-based
# cond: Mus musculus, 96 h, 1×10^5 cells/ml, RPMI with 10% FCS, 37° C., 4 days, trypan blue
observed property: IC50 (µg/mL)

compound	target under test	readout number
CCCCCCC=CC1C=CC(=O)C1=CCCCCCC(=O)OC (stereo not shown)	L1210 leukemia cells	0.3
CCCCC1C=CC(=O)C1=CCCCCCC(=O)OC (stereo not shown)	L1210 leukemia cells	0.3
CCCCC[C@H](O)/C=C/[C@@H]1C=CC(=O)/C1=C/CCCCCC(=O)OC	L1210 leukemia cells	0.2
COC(=O)CCCC#CC(O)C1C(=O)C=CC1C=CC(O)C1CCCC1 (stereo not shown)	L1210 leukemia cells	0.2
COC(=O)CCCC#CC=C1C(=O)C=CC1C=CC(O)C1CCCC1 (stereo not shown)	L1210 leukemia cells	0.3
CCCCC[C@H](O)/C=C/[C@H]1C=CC(=O)/C1=C/CCCCCC(=O)O [7(E)-7,8-Dehydroprostaglandin A1]	L1210 leukemia cells	0.4
CCCCC[C@H](O)/C=C/[C@@H]1/C(=C\CCCCCC(=O)O)C(=O)C[C@H]1O [7(E)-7,8-Dehydroprostaglandin E1]	L1210 leukemia cells	0.7
